# % Inhibition n=1 per entry
Molecular target: T1, human BCMA (huBCMA), full length, on cells (human, UniProt Q02223 1-184)
T1 construct: also called native huBCMA; B-cell maturation antigen
T1 chain: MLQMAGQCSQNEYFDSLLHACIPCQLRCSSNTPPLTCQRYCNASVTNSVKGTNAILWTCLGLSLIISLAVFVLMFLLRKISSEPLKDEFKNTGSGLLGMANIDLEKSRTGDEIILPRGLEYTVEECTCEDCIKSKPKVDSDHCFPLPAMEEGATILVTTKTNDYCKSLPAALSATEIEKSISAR
Assay: APRIL blocking FACS
Set-up: concentration or dose not given beside the values

binder	unit.descriptor	% Inhibition n=1
35D2 (antibody, V domains shown, also called Ab-15; 35D2.1) VH: EVQLLESGGALVQPGGSLRLSCAASGFTFSSYAMNWVRQAPGKGLEWVSAISVGGGTYYADSVKGRFTISRDNSKNTLYLHVNSLRAEDTAVYYCAKDQVTMVRGVWYYYGLDVWGQGTTVTVSS VL: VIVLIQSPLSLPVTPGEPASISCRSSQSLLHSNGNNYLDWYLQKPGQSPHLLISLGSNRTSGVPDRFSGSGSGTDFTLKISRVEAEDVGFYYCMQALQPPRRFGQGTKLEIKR	%	57
29C12 (antibody, V domains shown, also called Ab-8; 29C12.1) VH: EVQLLESGGALVQPGGSLRLSCAASGFTFSSYAMNWVRQAPGKGLEWVSAISVGGDTYYADSVKGRFTISRDNSKNTLYLQMNSLRAEDTAVYYCAKDQVTMVRGVWYYYGLDVWGQGTTVTVSS VL: DIVMIQSPLSLPVTPGEPASISCRSSQSLLHSNGNNYLDWYLQKPGQSPHLLISLGSNRTSGVPDRFSGSGSGTDFTLKISRVEAEDVGVYYCMQALQPPRRFGQGTKLEIKR	%	30
